Consider the following compounds and their measured pIC50 readings.
STUDY SYSTEM: Gamma-secretase
ASSAY COMMENT: Inhibition of gamma secretase
Type: protein-complex assay, Homo sapiens
The quantity pIC50 is defined as the negative base-10 logarithm of the molar concentration.

{"columns": ["COMPOUND", "pIC50"],
 "data": [
  ["O=S1(=O)NC[C@@H]2C[C@](c3cc(F)ccc3F)(S(=O)(=O)c3ccc(Cl)cc3)CC[C@@H]2N1 (racemic)", 8.21],
  ["CCN1C[C@@H]2C[C@](c3cc(F)ccc3F)(S(=O)(=O)c3ccc(Cl)cc3)CC[C@@H]2NS1(=O)=O (racemic)", 9.40],
  ["CN1C[C@@H]2C[C@](c3cc(F)ccc3F)(S(=O)(=O)c3ccc(Cl)cc3)CC[C@@H]2NS1(=O)=O (racemic)", 9.05],
  ["CC(C)N1C[C@@H]2C[C@](c3cc(F)ccc3F)(S(=O)(=O)c3ccc(Cl)cc3)CC[C@@H]2NS1(=O)=O (racemic)", 9.39],
  ["CCCN1C[C@@H]2C[C@](c3cc(F)ccc3F)(S(=O)(=O)c3ccc(Cl)cc3)CC[C@@H]2NS1(=O)=O (racemic)", 8.93],
  ["CCC1C[C@@H]2C[C@](c3cc(F)ccc3F)(S(=O)(=O)c3ccc(Cl)cc3)CC[C@@H]2CS1(=O)=O (single isomer, unassigned)", 9.12]
]}

Moving on to the next compound.
[in] Fill in reported pIC50 for this entry: CC1C[C@@H]2C[C@](c3cc(F)ccc3F)(S(=O)(=O)c3ccc(Cl)cc3)CC[C@@H]2NS1(=O)=O (single isomer, unassigned)
[out] 10.10

====

ASSAY COMMENT: Stability assessed as liver microsomal turnover in rat at 1 uM
Assay type: ADME, Microsome
CONDITION SET: liver microsomes, read-out: Stability
ENDPOINT: metabolised at 1 µM (%)
All answers are understood in %, so give the number only.

{"columns": ["COMPOUND", "MEASUREMENT UNITS", "metabolised at 1 µM"],
 "data": [
  ["CCC1C[C@@H]2C[C@](c3cc(F)ccc3F)(S(=O)(=O)c3ccc(Cl)cc3)CC[C@@H]2CS1(=O)=O (single isomer, unassigned)", "%", 15]
]}

[in] For CCCN1C[C@@H]2C[C@](c3cc(F)ccc3F)(S(=O)(=O)c3ccc(Cl)cc3)CC[C@@H]2NS1(=O)=O (racemic) , write its metabolised at 1 µM.
[out] 63

[in] Tell me measured metabolised at 1 µM for O=S1(=O)NC[C@@H]2C[C@](c3cc(F)ccc3F)(S(=O)(=O)c3ccc(Cl)cc3)CC[C@@H]2N1 (racemic) please.
[out] 9

====

ASSAY COMMENT: Half life in rat
Type: ADME, organism-based
CONDITION SET: in vivo
ENDPOINT: half-life (h)
Enter your answer as a number in h; do not include the unit.

[in] Look up and state reported half-life for CS(=O)(=O)NCC1CCCC(c2cc(F)ccc2F)(S(=O)(=O)c2ccc(Cl)cc2)C1 (stereo unspecified)
[out] 1.1

====

# metabolised at 1 µM per record follows
ASSAY COMMENT: Stability assessed as liver microsomal turnover in rat at 1 uM
Type: ADME, Microsome
CONDITION SET: liver microsomes, read-out: Stability
Output spec: scalar in %, unitless text.

Examples with their reported metabolised at 1 µM follow.
{"columns": ["COMPOUND", "metabolised at 1 µM [%]"],
 "data": [
  ["CC1C[C@@H]2C[C@](c3cc(F)ccc3F)(S(=O)(=O)c3ccc(Cl)cc3)CC[C@@H]2NS1(=O)=O (single isomer, unassigned)", 20],
  ["CC(C)(C)N1C[C@@H]2C[C@](c3cc(F)ccc3F)(S(=O)(=O)c3ccc(Cl)cc3)CC[C@@H]2NS1(=O)=O (racemic)", 15],
  ["CCN1C[C@@H]2C[C@](c3cc(F)ccc3F)(S(=O)(=O)c3ccc(Cl)cc3)CC[C@@H]2NS1(=O)=O (racemic)", 46],
  ["O=S1(=O)N[C@H]2CC[C@@](c3cc(F)ccc3F)(S(=O)(=O)c3ccc(Cl)cc3)C[C@H]2CN1C1CC1 (racemic)", 14],
  ["CCC1C[C@@H]2C[C@](c3cc(F)ccc3F)(S(=O)(=O)c3ccc(Cl)cc3)CC[C@@H]2NS1(=O)=O (single isomer, unassigned)", 7],
  ["CCCC1C[C@@H]2C[C@](c3cc(F)ccc3F)(S(=O)(=O)c3ccc(Cl)cc3)CC[C@@H]2NS1(=O)=O (single isomer, unassigned)", 32],
  ["O=S1(=O)N[C@H]2CC[C@@](c3cc(F)ccc3F)(S(=O)(=O)c3ccc(Cl)cc3)C[C@H]2CN1C1CCC1 (racemic)", 68]
]}

[in] Supply recorded metabolised at 1 µM for CN1C[C@@H]2C[C@](c3cc(F)ccc3F)(S(=O)(=O)c3ccc(Cl)cc3)CC[C@@H]2NS1(=O)=O (racemic) here.
[out] 17

====

ASSAY COMMENT: Bioavailability in rat
Format: ADME, organism-based
CONDITION SET: in vivo
ENDPOINT: bioavailability (%)
A number alone suffices; assume %.

[in] Consider the compound CS(=O)(=O)NCC1CCCC(c2cc(F)ccc2F)(S(=O)(=O)c2ccc(Cl)cc2)C1 (stereo unspecified) and give its recorded bioavailability.
[out] 31

====

STUDY SYSTEM: Gamma-secretase
ASSAY COMMENT: Inhibition of gamma secretase
Below is a list of entries, each paired with its recorded log10 IC50 value.
Reminder: these figures are log10 of reported IC50, in nM before transformation.

{"columns": ["MOLECULE", "STUDY SYSTEM", "OBSERVED"],
 "data": [
  ["CCC1C[C@@H]2C[C@](c3cc(F)ccc3F)(S(=O)(=O)c3ccc(Cl)cc3)CC[C@@H]2NS1(=O)=O (single isomer, unassigned)", "Gamma-secretase", -1.22],
  ["O=S1(=O)NC[C@@H]2C[C@](c3cc(F)ccc3F)(S(=O)(=O)c3ccc(Cl)cc3)CC[C@@H]2N1C1CC1 (racemic)", "Gamma-secretase", -1.40],
  ["O=S1(=O)N[C@H]2CC[C@@](c3cc(F)ccc3F)(S(=O)(=O)c3ccc(Cl)cc3)C[C@H]2CN1C1CC1 (racemic)", "Gamma-secretase", -0.72],
  ["CC(C)(C)N1C[C@@H]2C[C@](c3cc(F)ccc3F)(S(=O)(=O)c3ccc(Cl)cc3)CC[C@@H]2NS1(=O)=O (racemic)", "Gamma-secretase", 0.14],
  ["CCCC1C[C@@H]2C[C@](c3cc(F)ccc3F)(S(=O)(=O)c3ccc(Cl)cc3)CC[C@@H]2NS1(=O)=O (single isomer, unassigned)", "Gamma-secretase", -0.62]
]}

Consider the additional molecule presented here.
[in] Input O=S1(=O)N[C@H]2CC[C@@](c3cc(F)ccc3F)(S(=O)(=O)c3ccc(Cl)cc3)C[C@H]2CN1C1CCC1 (racemic) , output reported log10 IC50.
[out] -0.59
